# method description: Thermo Scientific Acclaim RSLC 120 C18, 100 × 2.1 mm, 2.2 µm, 30 °C; A: 90% water + 10% methanol + 0.01% formic acid + 5 mM ammonium formate; B: methanol + 0.01% formic acid + 5 mM ammonium formate; gradient (min/%B) 0.1/1 3/39 14/99.9 16/99.9
# study conditions: stereoisomer not certain
Would you mind telling me the reported LC retention time of each entry?
Give bare numbers, in min.

Please review the entries below; each comes with its answer.
{"compound": "C#CC1(O)CCC2C3CCC4=CC(=O)CCC4C3CCC21C (stereo unspecified)", "endpoint name": "LC retention time", "scale unit": "min", "obs value": 9.15}
{"compound": "CCCCCc1cc(O)c2c(c1)OC(C)(C)C1CCC(CO)=CC21 (stereo unspecified)", "endpoint name": "LC retention time", "scale unit": "min", "obs value": 12.5}
{"compound": "CCCCOc1cc(C(=O)OCCN(CC)CC)ccc1N", "endpoint name": "LC retention time", "scale unit": "min", "obs value": 5.94}
{"compound": "COc1cccc(C2(O)CCCCC2CN(C)C)c1 (stereo unspecified)", "endpoint name": "LC retention time", "scale unit": "min", "obs value": 4.88}
{"compound": "CCCN(CCC)CCc1cccc2c1CC(=O)N2", "endpoint name": "LC retention time", "scale unit": "min", "obs value": 3.98}

Please examine the following record next.
Query: For the compound shown here, "c1cnc2cc3c(cc2n1)C1CNCC3C1" , give the reported LC retention time.
Reply: 3.63

###

Assignment: determine reported LC retention time for the given molecules.
# method description: Thermo Scientific Acclaim RSLC 120 C18, 100 × 2.1 mm, 2.2 µm, 30 °C; A: 90% water + 10% methanol + 0.01% formic acid + 5 mM ammonium formate; B: methanol + 0.01% formic acid + 5 mM ammonium formate; gradient (min/%B) 0.1/1 3/39 14/99.9 16/99.9
# study conditions: stereoisomer not certain
Answers are plain numbers, in min.

Some solved cases for reference:
{"molecule": "CN(C)CCN1C(=O)c2ccccc2N(C)c2ccccc21", "LC retention time, min": 5.49}
{"molecule": "c1ccc(CN(CC2=NCCN2)c2ccccc2)cc1", "LC retention time, min": 6.41}
{"molecule": "CCN(CC)C(=O)C1C=C2c3cccc4[nH]cc(c34)CC2NC1 (stereo unspecified)", "LC retention time, min": 5.56}
{"molecule": "O=C1N=CCC=N1", "LC retention time, min": 4.49}
{"molecule": "CC1CCCCC1NC(=O)Nc1ccccc1 (stereo unspecified)", "LC retention time, min": 9.37}

We next turn to a different molecule, shown below.
Query: Given O=C1NCC(=O)N2C1Cc1c([nH]c3ccccc13)C2c1ccc2c(c1)OCO2 (stereo unspecified) , state its recorded LC retention time.
Reply: 7.99

###

Would you kindly list LC retention time for each of these molecules?
# method description: Thermo Scientific Acclaim RSLC 120 C18, 100 × 2.1 mm, 2.2 µm, 30 °C; A: 90% water + 10% methanol + 0.01% formic acid + 5 mM ammonium formate; B: methanol + 0.01% formic acid + 5 mM ammonium formate; gradient (min/%B) 0.1/1 3/39 14/99.9 16/99.9
# study conditions: stereoisomer not certain

Worked examples, 2 molecules total:
{"molecule": "CN(C)NC(=O)CCC(=O)O", "obs value": "6.28 min"}
{"molecule": "COCC(=O)N(c1c(C)cccc1C)N1CCOC1=O", "obs value": "6.29 min"}

Count: 4. Required value per item: LC retention time.
1. COP(=S)(OC)Oc1ccc(Sc2ccc(OP(=S)(OC)OC)cc2)cc1
2. CCNC(=O)C(C)OC(=O)Nc1ccccc1 (stereo unspecified)
3. c1ccc2c(c1)Cc1cccnc1N1CCNCC21 (stereo unspecified)
4. COc1cc(C(=O)NCc2ccc(OCCN(C)C)cc2)cc(OC)c1OC

Reply:
12.4 min
6.58 min
5.31 min
4.86 min
